B1: Azoarcus group I ribozyme (parent)
chain: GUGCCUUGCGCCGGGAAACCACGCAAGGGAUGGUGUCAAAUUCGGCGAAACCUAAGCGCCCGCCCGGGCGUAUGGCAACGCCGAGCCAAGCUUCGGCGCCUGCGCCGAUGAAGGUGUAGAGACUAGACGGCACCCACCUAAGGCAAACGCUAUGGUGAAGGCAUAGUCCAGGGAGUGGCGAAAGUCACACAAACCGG

variants of: B1; assay: reverse-splicing fitness (ratio to wild type); higher = more active; in vitro selection; Mg2+ level not given
Assign class by reverse-splicing fitness: not lower than 0.02 means yes; lower than 0.02 means no.

Example entries and their recorded answers appear below.
C82U A111G A120G A145C C150U C169A U176G: no
C82U A111U A120U A145U C150U C169A U176A: no

Problem: # check: reverse-splicing fitness of C82U A120G A145C C169G is greater than or equal to 0.02
Solution: yes

Problem: Also C82A A111G A120U A145U C150U C169U U176A , if possible.
Solution: no

Problem: Also C82U A111C A145G C150U C169G U176C , if possible.
Solution: no

Problem: Also C82A A120G A145G C150A C169G U176C , if possible.
Solution: yes

Problem: Also C150A C169A U176C , if possible.
Solution: yes

Problem: Also C82U A111C A120G A145C C169U U176C , if possible.
Solution: no

Problem: Also C82A A120C A145C C169G U176A , if possible.
Solution: yes

Problem: Also A111C A120U A145C C150A C169G U176G , if possible.
Solution: no
